From: PubChem BioAssay (NCI)

Tested on: CAKI-1 renal
Assay Summary: NCI-60 one-dose screen, 48 h
Condition Description: 10 µM unless noted
This is part of a sample that, as a whole, favours compounds with a hit. Of some 83,000 tested, about 20% had one in any assay. Active and inactive are the calls of the source. Rule for the calls: active = growth percent below 10; inactive = the rest.
Labels: active, inactive

[
  {
    "Molecule": "O=C(N/N=C/c1ccc(-c2ccc(O)cc2)o1)c1[nH]c2ccc(Br)cc2c1-c1ccccc1",
    "Label Value": "active"
  },
  {
    "Molecule": "CN(C)CCOc1ccc(C(=O)C2[C@H](c3ccc(Cl)cc3)[C@@H](c3ccccc3)NC23C(=O)Nc2ccc(Br)cc23)cc1 (stereo not given in full)",
    "Label Value": "inactive"
  },
  {
    "Molecule": "S=C(Nc1ccccc1)Nc1ccc(OCc2nc3ccccc3[nH]2)cc1",
    "Label Value": "inactive"
  },
  {
    "Molecule": "O=C(/C=C/c1cccc(OCc2ccc(F)cc2)c1)c1nc2ccccc2[nH]1",
    "Label Value": "inactive"
  },
  {
    "Molecule": "C#CCOc1ccc(/C=N/Nc2nc(-c3cc4cc(OC)ccc4oc3=O)cs2)cc1OC",
    "Label Value": "inactive"
  }
]

----------
Tested on: A498 renal
Assay Summary: NCI-60 one-dose screen, 48 h (100 = growth as untreated, 0 = no growth, -100 = all killed)
Condition Description: 10 µM unless noted
The panel holds about 83,000 compounds, 20% with a hit somewhere; the sample as a whole holds those more often.
Measure: growth (%)

[
  {
    "Molecule": "O=C1CCCc2cc(OCC(=O)N3CCCCC3)ccc2N1",
    "Target Of Assay": "A498 renal",
    "Units Text": "%",
    "Result": 114
  },
  {
    "Molecule": "O=C(COc1ccc2c(c1)CCCC(=O)N2)NCc1ccccc1",
    "Target Of Assay": "A498 renal",
    "Units Text": "%",
    "Result": 94.6
  },
  {
    "Molecule": "N#Cc1cnn(C(=O)c2ccccc2Br)c1NC(=O)c1ccc(Br)cc1Cl",
    "Target Of Assay": "A498 renal",
    "Units Text": "%",
    "Result": 106
  },
  {
    "Molecule": "O=C(COc1ccc(NC(=O)Nc2ccccc2)cc1)N=Nc1c(O)[nH]c2ccc([N+](=O)[O-])cc12",
    "Target Of Assay": "A498 renal",
    "Units Text": "%",
    "Result": 133
  },
  {
    "Molecule": "CCCCCCCS(=O)(=O)N1CCCC(C(=O)Nc2nc3ccc(NC(=O)c4ccc(F)c(OC)c4F)cc3s2)C1 (centres undefined)",
    "Target Of Assay": "A498 renal",
    "Units Text": "%",
    "Result": 89.4
  },
  {
    "Molecule": "COc1cc2c(c(OC)c1OC)C(=O)CC(c1cccc(NC(=O)c3cc(NC(=O)[C@@H](N)CO)ccc3C)c1)O2 (some centres undefined)",
    "Target Of Assay": "A498 renal",
    "Units Text": "%",
    "Result": 126
  },
  {
    "Molecule": "Cn1cc(-c2cc3nc(-c4cn(C)c5ncc(Br)cc45)cc(N)n3n2)c2cc(Cl)ccc21",
    "Target Of Assay": "A498 renal",
    "Units Text": "%",
    "Result": -1.96
  },
  {
    "Molecule": "C=C1CC[C@@H]2[C@]3(C)COC(c4cn[nH]c4-c4ccccc4)O[C@@H]3CC[C@@]2(C)[C@@H]1C/C=C1/C(=O)OCC1O (some centres undefined)",
    "Target Of Assay": "A498 renal",
    "Units Text": "%",
    "Result": 137
  },
  {
    "Molecule": "C#C[C@]1(O)CC[C@H]2[C@@H]3CC=C4c5sc(-c6ccc(O)c(O)c6)nc5CC[C@]4(C)[C@H]3CC[C@@]21C",
    "Target Of Assay": "A498 renal",
    "Units Text": "%",
    "Result": -88.5
  }
]

----------
Tested on: M14 melanoma
Assay Summary: NCI-60 one-dose screen, 48 h (100 = growth as untreated, 0 = no growth, -100 = all killed)
Condition Description: 10 µM unless noted
Compounds without any hit were thinned out: in the full panel of roughly 83,000, 20% have a hit.
Listed here: items and their measured growth.
Measure: growth (%)

[
  {
    "Compound": "CC1[C@H]2[C@H](C[C@H]3[C@@H]4CC=C5c6sc(Nc7ccccc7F)nc6CC[C@]5(C)[C@H]4CC[C@@]32C)O[C@]12CC[C@@H](C)CO2 (stereo partly drawn)",
    "Units Text": "%",
    "Result": -87.8
  },
  {
    "Compound": "O=C1/C(=C/C2=Cc3ccccc3OC2)SC(=S)N1c1ccccc1F",
    "Units Text": "%",
    "Result": 93.3
  },
  {
    "Compound": "O=C(CN1C(=O)/C(=C/c2ccccc2Cl)SC1=S)N1CCOCC1",
    "Units Text": "%",
    "Result": 85.3
  },
  {
    "Compound": "O=C(COc1ccc(NC(=O)Nc2ccc(Cl)cc2)cc1)N/N=C/c1ccccc1",
    "Units Text": "%",
    "Result": -66.1
  },
  {
    "Compound": "Cn1cc(-c2nnc(N)nc2-c2c[nH]c3ccc(Br)cc23)c2cc(Br)cnc21",
    "Units Text": "%",
    "Result": 57.2
  },
  {
    "Compound": "O=C(COc1ccc(NC(=O)Nc2ccc(Cl)c(Cl)c2)cc1)N=Nc1c(O)[nH]c2ccc(Cl)cc12",
    "Units Text": "%",
    "Result": -71.2
  },
  {
    "Compound": "Cn1nc(C(F)(F)F)cc1-c1cc(Cl)c(COc2ccc(Cl)cc2)c(-c2ccc(Cl)c(C(F)(F)F)c2)c1O",
    "Units Text": "%",
    "Result": -67
  },
  {
    "Compound": "C#CCOc1cc(N(CC)CC)ccc1C(C(=O)NC(C)(C)C)N(C(=O)C1CCc2cc(F)ccc2O1)c1ccc(F)cc1 (stereo not drawn)",
    "Units Text": "%",
    "Result": 46.4
  }
]

----------
Tested on: SK-MEL-5 melanoma
Assay Summary: NCI-60 one-dose screen, 48 h (100 = growth as untreated, 0 = no growth, -100 = all killed)
Condition Description: 10 µM unless noted
This is part of a sample that, as a whole, favours compounds with a hit. Of some 83,000 tested, about 20% had one in any assay.

[
  {
    "Structure String": "COc1cc(CNC(=O)/C=C/c2ccc3c(c2)OCO3)ccc1OCc1cn(-c2cccc(C(F)(F)F)c2)nn1",
    "Target Of Assay": "SK-MEL-5 melanoma",
    "growth / %": 33.2
  },
  {
    "Structure String": "CCCSc1nc(NCCc2c[nH]c3ccccc23)c(C#N)c(-c2ccccc2)n1",
    "Target Of Assay": "SK-MEL-5 melanoma",
    "growth / %": 41.6
  },
  {
    "Structure String": "CN(C)CCCNC(=O)c1cc(NC(=O)c2cc(NC(=O)c3ccc(/C=C/c4ccccc4)cc3)cn2C)cn1C",
    "Target Of Assay": "SK-MEL-5 melanoma",
    "growth / %": 40.3
  },
  {
    "Structure String": "O=c1oc2ccccc2cc1-c1csc(N=Nc2c(O)[nH]c3ccc(Cl)cc23)n1",
    "Target Of Assay": "SK-MEL-5 melanoma",
    "growth / %": 98.7
  }
]

----------
Tested on: OVCAR-8 ovarian
Assay Summary: NCI-60 one-dose screen, 48 h
Condition Description: 10 µM unless noted
Compounds without any hit were thinned out: in the full panel of roughly 83,000, 20% have a hit. The source made the active and inactive calls. The calls were made as follows: active = growth percent below 10; inactive = the rest.
Labels: class 1 for active, class 0 for inactive

[
  {
    "Molecule": "CCCSc1nc(NCCc2c[nH]c3ccccc23)c(C#N)c(-c2ccc(OC)cc2)n1",
    "Label Value": "class 0"
  },
  {
    "Molecule": "COc1ccc2c(c1)c(-c1cc3nc(-c4cn(C)c5ncc(Br)cc45)cc(N)n3n1)cn2C",
    "Label Value": "class 1"
  },
  {
    "Molecule": "COc1cc(C2CC(c3cc(OC)c(OC)c(OC)c3)=Nc3c(N)nc(N)nc3N2)ccc1Oc1nc(NCCO)nc(N2CCOCC2)n1 (centres undefined)",
    "Label Value": "class 0"
  },
  {
    "Molecule": "COc1cc(C2CC(c3cc(OC)c(OC)c(OC)c3)=NN2C(C)=O)ccc1OCc1ccc(F)cc1 (centres undefined)",
    "Label Value": "class 0"
  }
]
